I'd appreciate it if you could supply viability values for the items below.
# experimentalDetails: reversal of MRP1-mediated doxorubicin resistance, pilot screen, H69AR cells, doxorubicin co-treatment (AID 601)
# assayContext: H69AR cells, CellTiter-Glo, 72 h; compound alone cytotoxicity; at 10 µM

For CSC1CCCCC1(O)CSc1nc2c(cc1C#N)CCCC2 (stereo unspecified) , what is its reported viability?
92.6%

Would you kindly share the measured viability for C[C@]12C=CC(=O)C=C1CC[C@@H]1[C@@H]2[C@@H](O)C[C@@]2(C)[C@H]1CC[C@]2(O)C(=O)COC(=O)CCC(=O)O ?
84.4%

Requested field: viability. Item: COC(=O)c1ccccc1NC(=O)C1CC=CCC1C(=O)O (stereo unspecified)
84.8%

Could you tell me which viability is on file for COc1cccc(OCc2nnc(SCC(=O)OCc3ccccc3)o2)c1 ?
97%

Recorded viability of O=C(CCn1c(=O)c2sccc2n(CC(=O)NCc2ccco2)c1=O)NCc1ccccc1 , please.
96.9%

What measured viability goes with Cc1cccc(OCC(=O)N2CCC(c3ccccc3)C2)c1 (stereo unspecified) ?
92.8%

Entry under review: Nc1nnnn1NCc1cccc(OCc2ccccc2)c1 . Reported viability?
104%

// query viability value for entry Cc1[nH]n(C(N)=S)c(=O)c1C(c1ccccc1)C(C#N)C#N (stereo unspecified)
91.6%

If you can, please state the reported viability value of COc1ccc2ccccc2c1CN1CCCC(CO)C1 (stereo unspecified) .
82%

Recorded viability of Cn1c(=O)[nH]c(=O)c2c1nc(NC1CCCCC1)n2CC(=O)NC1CCCCC1 , please.
94.7%

# lookup: viability of COc1ccc(S(=O)(=O)N2CCN(Cc3ccc(Cl)cc3)CC2)cc1
97%

// viability lookup, key: Clc1ccc(-c2nnc3sc(-c4ccc(Br)o4)nn23)cc1
104%

Tell me the measured viability of COC(=O)CSC1=C(C#N)C(c2ccccc2)CC(=O)N1 (stereo unspecified) , please.
23.4%

# get_value(readout='viability', item= Cn1c(SCC(=O)c2ccc(-c3ccccc3)cc2)nnc1-c1ccco1 )
88.1%

viability lookup needed for Cc1cc(/C=c2/sc3nc4ccccc4n3c2=O)c(C)n1-c1ccccn1 , thanks.
63%

State the recorded viability for this entry: CC1(C)Cc2c(c(=S)nc(-c3ccccc3)n2CCO)CO1
87.6%

Reported viability, compound OC1C=CSc2nc3ccccc3n21 (stereo unspecified) : ____
66.8%

# input compound: CCN(CCCCOC(=O)c1ccc(OC)c(OC)c1)C(C)Cc1ccc(OC)cc1 (stereo unspecified) ; wanted: its viability
78.9%

Entry c1ccc(Cn2ncc3c2ncn2c(-c4ccncc4)nnc32)cc1 has what viability?
95%

viability for O=C1C2C3C=CC(C3=C3CCCCC3)C2C(=O)N1c1ccccc1 (stereo unspecified) ?
95.8%

// lookup viability for CCc1cn([C@H]2C[C@H](O)[C@@H](CO)O2)c(=O)[nH]c1=O
85.9%

Look up viability: CCC(=O)N1CCc2cc(Br)cc(S(=O)(=O)C3(C(=O)OC)CC3)c21
90.8%

Could you tell me which viability is on file for O=c1c2ccccc2nc(SCc2cn3ccsc3n2)n1-c1ccc(F)cc1 ?
102%

Please give the measured viability for this compound: CCCCCC(=O)N1CC2(C)CN(C(=O)CCCCC)CC(C)(C1)C2=O
87.5%

Which value of viability has been reported for CC1(C)CC(=O)c2cnc(NC(=O)CSc3nc4ccccc4o3)nc2C1 in the records?
105%

Could you share which viability value was measured for Cc1c(C)[n+](=O)c2c(n1[O-])CCCCC2 ?
96%

Param item = COCCCNC(=O)CSc1nc2ccc(N3CCOCC3)cc2c(=O)n1CCc1ccccc1 ; retrieve measured viability.
94.9%

Fill in the blank: the reported viability of COc1ccc(OC)c(S(=O)(=O)NCCO)c1 is ____.
95.2%

Dear colleague, I am looking for the recorded viability of the following compound: CC1=C(C(=O)N2CCOCC2)C(c2ccsc2)C2=C(CCCC2=O)N1 (stereo unspecified)
90.4%

Given CCOC(=O)C1CCN(C(=O)Nc2ccc3nc(C)c(C)nc3c2)CC1 , state its recorded viability.
95.5%

Any idea what its viability is? The compound is Cc1nnc(N(C)C(=O)c2cccnc2)s1
88.7%

Which viability is reported for this compound? COc1ccc2nc(S(=O)Cc3ncc(C)c(OC)c3C)[nH]c2c1 (stereo unspecified)
80.8%

# lookup: viability of CCn1cc(C(=O)O)c(=O)c2ccc(C)nc21
101%

Value lookup for viability; key = O=C(O)CCCc1ccccc1
98%

What measured viability goes with CCCC(=O)Nc1cc(-c2nnc(OC)c3ccccc23)ccc1N1CCOCC1 ?
94.5%

Reported viability for CCCCNC(=O)c1nnn(-c2ccccc2)c1N : what is it?
92.2%

Data request, read-out viability, for CCOC(=O)C1CCCN(S(=O)(=O)c2cccs2)C1 (stereo unspecified)
109%

viability for Cc1cc(-c2ccccc2)nnc1NCCN1CCOCC1 ?
89.7%

What value of viability has been reported for the following compound? COc1cccc(NC(=O)COC(=O)c2cccnc2)c1
91.1%

viability for Cc1ccc(C)c(N(CC(=O)NC2CCCC2)C(=O)CCCC(=O)Nc2ccccn2)c1 ?
102%

// lookup viability for CCCCCCC(=O)c1c(C)[nH]c(C(=O)OCC)c1C
92.7%

What value of viability has been recorded for this entry: CCOC(=O)C1CCCN(C(=O)CNS(=O)(=O)c2ccc(Br)s2)C1 (stereo unspecified)
95.7%

For the compound COc1ccc2c(c1)c(CC(=O)O)c(C)n2C(=O)c1ccc(Cl)cc1 , what viability is on record?
95.6%

So what's the measured viability for this one? COc1ccc(C(=O)CN2C(=O)NC3(CCCc4ccccc43)C2=O)cc1OC (stereo unspecified)
88.6%

Query: viability; subject: CCCC1Cc2c(sc3ncnc(N)c23)CO1 (stereo unspecified)
90.9%

What value of viability has been recorded for this entry: Cc1ccc(N2CCN(CCc3nc4cc(NS(C)(=O)=O)ccc4n3C)CC2)cc1
90.1%

* * *

# experimentalDetails: reversal of MRP1-mediated doxorubicin resistance, pilot screen, H69AR cells, doxorubicin co-treatment (AID 601)
# assayContext: H69AR cells + 2 uM doxorubicin, CellTiter-Glo, 72 h; at 10 µM; stronger effect = higher value
Calls of active or inactive are those of the source.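 How the source made its calls: active means viability loss from added drug above about 55%, and viability with drug at most 40%, in both replicates (limit read from the data, passing the limit was not always enough); inconclusive means both conditions met in only one replicate; inactive means neither replicate meets both conditions.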
quantityKind: differential viability (reversal)

For the compound O=C(Nc1nccs1)c1ccc(Cl)c(S(=O)(=O)N2CCCCC2)c1 , what differential viability (reversal) is on record?
-9.49% (inactive)

I would be grateful if you could share the reported differential viability (reversal) for O=S1(=O)Nc2c(ccc3cccnc23)-c2ccccc21 .
-6.77% (inactive)

Entry O=C(CC(Cc1ccccc1)C(=O)O)NCCc1ccc2c(c1)OCO2 (stereo not given) : reported differential viability (reversal) = ?
19.3% (inactive)

Recorded differential viability (reversal) of C[N+](C)(C)CCOP(=O)([O-])OC[C@H](O)CO , please.
0.95% (inactive)

Please give the measured differential viability (reversal) for this compound: O=C(Nc1ccccc1)N1CCC(c2ccccc2)C1 (stereo not given)
19.2% (inactive)

Need differential viability (reversal) of CC(=O)O[C@H]1C[C@@H]2CC[C@@H]3[C@H](CC[C@@]4(C)[C@H]3C[C@H]([N+]3(C)CCCCC3)[C@@H]4OC(C)=O)[C@@]2(C)C[C@@H]1[N+]1(C)CCCCC1 , thanks.
-4.76% (inactive)

// lookup differential viability (reversal) for Cc1nn(Cc2ccccc2)c(C)c1NC(=O)c1cc(-c2ccco2)on1
19.6% (inactive)

Fill in: differential viability (reversal) of CCOc1ccc(S(=O)(=O)Nc2ccc(Cl)cn2)c(C)c1C is ___
-2.8% (inactive)

Entry C/C=C(\CS(=O)(=O)c1ccccc1)S(=O)(=O)c1ccccc1 has what differential viability (reversal)?
-0.38% (inactive)

Return reported differential viability (reversal); argument: CC(=O)c1cc(-c2ccccc2)n(CC(=O)N2CCN(C3CCCC3)CC2)c1C
-0.095% (inactive)

* * *

# experimentalDetails: growth suppression of yeast trafficking mutant, preliminary HTS, modulators of trafficking downstream of Golgi apparatus project, 1536-format plate, OD 615 nm (AID 637)
# assayContext: yeast transport mutant growth, absorbance 615 nm, 18 h; stronger effect = higher value
quantityKind: inhibition (%)
# output: bare number, implied unit %

Quick check: inhibition of CCCC(=O)Nc1ccccc1NC(=O)CN(C)S(=O)(=O)c1ccc(C)cc1 ?
-4.84

Given the compound Cc1cc(C(=O)COC(=O)CCc2nc3ccccc3s2)c(C)n1C , what is its reported inhibition?
-5.09

Returns the measured inhibition for the input compound. Input: COc1ccc(C2C3=C(CCCC3=O)Nc3nc(SCc4ccccc4)nn32)cc1OC (configuration not stated)
0.36

What does the record list as inhibition for CCN1CCN(c2nc(-c3cccnc3)nc3ccccc23)CC1 ?
-0.63

Returns the measured inhibition for the input compound. Input: CCN1CCc2c(C#N)c(N3CCCCC3)nc(NCc3ccccc3)c2C1
16.6

Entry CCC(C)(C)n1nnnc1C(c1ccccc1OC)N1CCSCC1 (configuration not stated) : reported inhibition = ?
-4.76

Report inhibition for CCCC1O[C@@H]2C[C@H]3[C@@H]4CCC5=CC(=O)C=C[C@]5(C)[C@H]4[C@@H](O)C[C@]3(C)[C@]2(C(=O)CO)O1 (some centres not stated) please.
-3.83

inhibition for CS(=O)(=O)N(CC(=O)N1CCN(c2cccc(Cl)c2)CC1)C1CCCCC1 ?
-7.78

Reported inhibition, compound CC(C)(C)NCC(O)c1cc(O)cc(O)c1 (configuration not stated) : ____
2.5

Please look up its inhibition: Clc1ccc(Cl)c(-c2nn3c(Cn4cnc5ccccc54)nnc3s2)c1
-0.18

GET /values?readout=inhibition&item= O=C(O)c1cc(O)c2c(c1)C(=O)c1cccc(O)c1C2=O
1.83

Value lookup for inhibition; key = CN(C(=O)c1ccncc1)C1CC(C)(C)N(O)C(C)(C)C1
-6.36

Name the recorded inhibition for Cc1[nH]nc2c1C(c1ccc(F)cc1)C1=C(CC(C)(C)CC1=O)N2 (configuration not stated) .
3.97

I have this compound here, CCCn1c(SCC(=O)Nc2ccccc2C(=O)OC)nc2c1c(=O)n(C)c(=O)n2C , and I need its recorded inhibition.
3.02

Dear colleague, I am looking for the recorded inhibition of the following compound: COc1ccc2cc(C#N)c(N3CCN(Cc4nnnn4CCC(C)C)CC3)nc2c1
2.73

Bench note: what inhibition did CCOC(=O)C(C#N)C(c1cccnc1)c1c(C)[nH][nH]c1=O (configuration not stated) show?
4

# input compound: CCOC(=O)c1sc(Nc2nc3c(OC)cccc3s2)nc1C ; wanted: its inhibition
-4.76

# input compound: Cc1ccc(-n2c(N)c(C(N)=O)sc2=S)cc1 ; wanted: its inhibition
0.73

Quick one: inhibition of Cc1cccc(N(C)C(=O)c2coc(=O)c3ccccc23)c1 ?
-1.64

Quick one: inhibition for CN1CC=C2C(C#N)=C(N)C(C#N)(C#N)C(Cc3ccccc3)C2C1 (configuration not stated) ?
-7.26

Consider the compound shown here: O=c1oc(-c2ccco2)nc2ccccc12 What is its recorded inhibition?
-2.22

So what's the measured inhibition for this one? COc1ccc(S(=O)(=O)NC2CCCCC2)c(C)c1C
-2.9
